Target: Androgen receptor (AR) (Rattus norvegicus, UniProt P15207)
Sequence (P15207 646-902 limits assumed): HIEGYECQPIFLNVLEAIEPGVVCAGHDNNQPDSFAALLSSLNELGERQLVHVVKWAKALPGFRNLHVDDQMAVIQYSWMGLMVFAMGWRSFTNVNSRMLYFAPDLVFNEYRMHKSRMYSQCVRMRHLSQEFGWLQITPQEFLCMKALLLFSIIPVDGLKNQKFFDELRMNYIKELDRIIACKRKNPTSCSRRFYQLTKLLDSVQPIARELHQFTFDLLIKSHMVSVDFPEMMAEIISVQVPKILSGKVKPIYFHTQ
readoutType: IC50
Please state the value followed by its unit.

IC50 in this record for O=C(/C=C/c1ccc(O)c(O)c1)OCCc1ccccc1 : 132 µM
